Each recorded value in this set is attributed to a melting point compilation (Tetko et al.; mined from patent text by program, amines drawn as free bases though some values may be those of a salt).

Listed here: items and their measured melting point.
Outcome Measure: melting point

>>> test_result("C[C@@H](n1cnc2cc(-c3ccc(S(C)(=O)=O)cc3)sc2c1=O)[C@](O)(Cn1cncn1)c1ccc(F)cc1F")
"281 to 282 °C"
>>> test_result("Cc1cccc(NC(=O)NCC(=O)N(CC(=O)N2CCSC(C)(C)C2)c2ccccc2)c1")
"186 °C"
>>> test_result("Cc1ccc2c(Cl)nccc2c1[N+](=O)[O-]")
"171 to 173 °C"
>>> test_result("Cc1cc(C2=NN(C)C(=O)C2)c(Cl)cc1Cl")
"196 to 198 °C"
>>> test_result("O=C(CC1=C(n2nc(-c3c(-c4ccccc4)nn4ccccc34)ccc2=O)CCCC1)N1CCCC1")
"178 to 179 °C"
>>> test_result("Cc1cc(C(C)(C)C)c(O)c(C)c1CC(=O)O")
"161 to 165 °C"
>>> test_result("O=C(NCc1ccccc1)c1cc(N2CCN(Cc3ccc(F)cc3)C2=O)n[nH]1")
"262 to 263 °C"
>>> test_result("CNC1=C(C#N)C(c2ccc(Cl)c([N+](=O)[O-])c2)c2ccc3ccccc3c2O1 (stereo not drawn)")
"278 to 279 °C"
>>> test_result("CCCCOC(=O)CN(C(=O)C(F)(F)F)C(N1CCOCC1)P(=O)(O)OSc1ccc(Cl)cc1 (stereo not drawn)")
"79.5 to 81 °C"
>>> test_result("CC(Cl)(Cl)C(NC(=O)c1ccc(Cl)cc1)NC(=NC#N)Nc1ccc(Cl)nc1 (stereo not drawn)")
"199 to 200 °C"
>>> test_result("O=C(CCC(=O)Oc1ccc(C(=O)OCc2ccccc2)cc1)Oc1ccc(C(=O)OCc2ccccc2)cc1")
"106 to 107 °C"
>>> test_result("CCN(C(=O)C1CC1)c1cccc(-c2ccnc3c(C(=O)c4ccco4)cnn23)c1")
"182 to 184 °C"
>>> test_result("COc1cc2cnnc(N3CCC4(CC3)OCCCO4)c2cc1OC")
"194 to 196 °C"
>>> test_result("CC(C)CCC(O)C(CC1CCCCC1)NC(=O)C(Cc1c[nH]cn1)N(C)C(=O)C(Cc1ccccc1)NC(=O)N1CCOCC1 (stereo not drawn)")
"102 to 108 °C"
>>> test_result("Cc1cc(Br)cnc1NCCCNC1=NS(=O)N=C1NCc1ccncn1 (stereo not drawn)")
"171 to 172 °C"
>>> test_result("COC1CC(n2cc(C=CBr)c(=O)[nH]c2=O)OC1CF (stereo not drawn)")
"177 °C"
>>> test_result("COc1cccc2c(CCCCN(C3CCC3)C3COc4c(F)ccc(C(N)=O)c4C3)coc12 (stereo not drawn)")
"122 to 127 °C"
>>> test_result("O=C(CCc1cnn(-c2ccccc2)c1-c1ccccc1)Nc1ccc(C(=O)O)cc1")
"254 to 256 °C"
>>> test_result("O=C1c2ccc(NC(=O)C3CCCC3)cc2C(=O)c2cc(NC(=O)C3CCCC3)ccc21")
"281 °C"
>>> test_result("O=Cc1c[nH]c2c1ccc1c3cc(-c4ccc(F)cc4)ccc3[nH]c12")
"> 250 °C"
>>> test_result("COCCOc1ccc(-c2sc(N3C(=O)c4ccccc4C3=O)c(C(=O)c3ccc(Cl)cc3)c2CBr)cc1")
"142 to 145 °C"
>>> test_result("Cc1ccccc1N1CCN(C2CCc3cc(O)ccc3C2)CC1 (stereo not drawn)")
"177 to 179 °C"
>>> test_result("COc1cc2c(cc1CNC1CCCNC1c1ccccc1)N(C)C(=O)CC2(C)C (stereo not drawn)")
"> 280 °C"
>>> test_result("CC1(C)CCC(C)(C)c2cc(N)ccc21")
"63 to 65 °C"
>>> test_result("CCCC(=O)c1cc2c(=O)c(C(=O)OCC)cn(CC)c2cc1C")
"145 to 146 °C"
>>> test_result("CCc1cc(-c2nc(C)c(-c3ccnc(Nc4ccc(S(=O)(=O)NCCO)cc4)n3)s2)ccn1")
"233 to 234 °C"
>>> test_result("CC(C)NS(=O)(=O)Cc1ccc(N)cc1")
"105 to 107 °C"
>>> test_result("CC(C)CC(CO)NC(=O)C(Cc1cn(NC(=O)OCc2ccccc2)cn1)NC(=O)CCCc1ccccc1 (single isomer, unassigned; (-))")
"178 to 180 °C"
>>> test_result("CCCOc1ccc(S(=O)(=O)Nc2ccc3[nH]ncc3c2)cc1-c1nc2cc3nc[nH]c3cc2c(=O)[nH]1")
"261 to 263 °C"
>>> test_result("CCCSc1ncc(CC(NC(=O)CCC)C(=O)O)n1Cc1ccccc1Cl (stereo not drawn)")
"178 to 181 °C"
>>> test_result("COC1(c2cccc(S(=O)(=O)c3ccc4c(c3)C(C)(C)C(=O)N4C)c2)CCOCC1")
"164 to 166 °C"
>>> test_result("O=C(C1CC1)N1CC[C@H](c2ccccc2)[C@H](O)C1 (relative stereo)")
"128 to 129 °C"
>>> test_result("CS(=O)(=O)Nc1cccc(Nc2nc(NC3CN4CCC3CC4)c3nc[nH]c3n2)c1 (stereo not drawn)")
"200 to 204 °C"

###

Listed here are molecules together with their documented melting point.
Outcome Measure: melting point

>>> test_result("COc1ccc2[nH]cc(CCCNCC3COc4ccccc4O3)c2c1 (centres undefined)")
"135 to 136 °C"
>>> test_result("NC1([C@@H]2CCN(c3ccc4c(=O)c(C(=O)O)cn(C5CC5)c4c3OC(F)F)C2)CC1")
"206 to 208 °C"
>>> test_result("CC(=O)Oc1ccc(-c2c3ccccc3cc3sc4ccccc4c23)cc1OC(C)=O")
"179 to 180 °C"
>>> test_result("CN1CCN(CCCc2cc3ccccc3c(=O)[nH]2)CC1")
"120 to 122 °C"
>>> test_result("CCCc1cc(CCCOc2c(C)cc(-c3nc(C)no3)cc2C)on1")
"35 to 37 °C"
>>> test_result("COc1ccc2c(c1)-c1c(ccn1C[C@@H](C)O)C2")
"75 °C"
>>> test_result("NCCCNc1ncc2ncnc(Nc3ccc(F)c(Cl)c3)c2n1")
"177 to 179 °C"
>>> test_result("CC(O)/C=C/c1ccc(-c2ccccc2)cc1 (centres undefined)")
"138 to 139 °C"
>>> test_result("Cc1cccc(NC(=O)NC2N=C(c3ccccc3F)c3cccc(C)c3N(CC(=O)c3ccccc3C)C2=O)c1 (centres undefined)")
"190 to 196 °C"

###

Outcome Measure: melting point

>>> test_result("CC1CC(=O)NN=C1c1ccc2c(c1)N(S(C)(=O)=O)CCO2 (centres undefined)")
"207 to 212 °C"
>>> test_result("COc1ccc(-c2cc(Nc3c(C)cc(C)cc3C)nc(C)n2)cc1OC")
"168 to 170 °C"
>>> test_result("CN(C(=O)Nc1ccc(Cl)cc1)c1nncs1")
"182 °C"
>>> test_result("O=C(N[C@@H](CN1CCC(=C2c3ccccc3C=Cc3ccccc32)CC1)C(=O)O)OCc1ccccc1")
"178 to 179 °C"

###

Items are presented alongside their recorded melting point.
Outcome Measure: melting point

>>> test_result("O=C(c1ccc(O)cc1)c1c(-c2ccccc2)sc2ccccc12")
"163 to 165 °C"
>>> test_result("Cc1cc(Nc2ccnc(Nc3ccc(S(=O)(=O)N(C)C4CCC(F)(F)CC4)cc3)n2)ccc1F")
"164 to 165 °C"
>>> test_result("O=C(CCCO)NCC1c2ccccc2CCc2ccccc21")
"98 to 99 °C"
>>> test_result("COc1cc(-c2cc(=O)c3ccc(OCC(O)CN4CCN(c5ccccc5)CC4)cc3o2)cc(OC)c1OC (stereo not given)")
"170 to 171 °C"
>>> test_result("CC(=O)Nc1ccccc1Oc1cc2c(=O)ccoc2cc1NS(C)(=O)=O")
"130 to 132 °C"

###

# melting point annotations
Outcome Measure: melting point

>>> test_result("CCc1cc(=O)c2nc(OCC[Si](C)(C)C)ccc2[nH]1")
"193 °C"
>>> test_result("Cc1ccccc1CC(=O)Nc1ccc(C(=O)N2Cc3cccn3Cc3ccccc32)cc1")
"198 to 200 °C"
>>> test_result("COC(=O)c1c(C)n(-c2cc(N)c(C)cc2C)cc(Cl)c1=O")
"215 °C"
>>> test_result("Cc1ccsc1-c1nc(COc2ccc(CCCCn3ccnc3)cc2)co1")
"88 to 89 °C"
>>> test_result("CCCc1c(OCC(O)COc2cccc(NC(=O)C(=O)OCC)c2C#N)ccc(C(C)=O)c1O (stereo unspecified)")
"172 to 174 °C"
>>> test_result("COC(=O)CC(C(=O)OC)c1ccccc1 (stereo unspecified)")
"54 to 56 °C"
>>> test_result("Fc1ccc(Oc2cc3c(Cl)nc(Cl)nc3cn2)c(F)c1")
"144 to 146 °C"
>>> test_result("CC(O)c1cc2ccccc2cn1 (stereo unspecified)")
"104 to 106 °C"
>>> test_result("O=[N+]([O-])C=CC1=CCN(c2ccccc2)N1")
"150 °C"
>>> test_result("O=C(NCO)c1cccc(Oc2ccccc2)c1")
"112 to 113 °C"
>>> test_result("C#CCNC(=O)C(C#N)C(=O)C1CC1 (stereo unspecified)")
"128 to 129 °C"
>>> test_result("CCOC(=O)c1c(SC)nc(C2CC2)n1Cc1ccc(-c2ccccc2S(=O)(=O)NC#N)cc1")
"> 260 °C"
>>> test_result("Nc1cccn2nc(SCc3ccccc3)nc12")
"116 to 117 °C"
>>> test_result("CCN1c2ncc(COc3ccc(C(=O)OC)cc3)cc2C(=O)N(C)c2ccc(Cl)nc21")
"196 to 197 °C"
>>> test_result("CCOc1cc2c(cc1S(=O)(=O)NC(=S)NC)C(CNC(=O)N1CC(C)=C(CC)C1=O)CCO2 (stereo unspecified)")
"178 °C"
>>> test_result("CCCC(=O)C1=C(O)CC(c2cc(C(C)C)no2)CC1=O (stereo unspecified)")
"105 to 107 °C"
>>> test_result("COc1cc(OC)nc(NC(=O)NS(=O)(=O)N=CN(C)CSC)n1")
"167 to 168 °C"
>>> test_result("Cc1cc(C(O)(C=Cc2ccc(Cl)cc2)C(F)(F)F)ccc1N (stereo unspecified)")
"126 to 129 °C"
>>> test_result("COC(=O)C(=O)c1cn2c3c(cccc13)C(OC(C)=O)CC2 (stereo unspecified)")
"165 to 168 °C"
>>> test_result("Cc1nc(N)c2nc(CO)n(Cc3cc(-c4ccc(F)cc4)no3)c2c1C")
"164 to 165 °C"
>>> test_result("N#Cc1nc(Cl)c(Cl)c(NN)c1Cl")
"178 to 181 °C"
